experimental_system: T1, recombinant human CDCP1 ECD (AA30-667) with C-terminal His tag (human, UniProt Q9H5V8 30-667);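 further: antibody captured for 120 s on the sensor, followed by 300 s association with CDCP1 and a 300–600 s dissociation phase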
T1 construct: range 30-667; also called FL-ECD; recombinant FL-ECD
protocol_text: Octet BLI, Ab on Protein A sensor, recombinant CDCP1 analyte
metric_name: Kd (nM)
// note: answer is a bare numeric in nM

Worked set:
47G7 (antibody, human IgG1, V domains shown, also called human antibody 47G7) VH: EVQLVESGGGLVQPGGSLRLSCAASGFTFSSYWMSWVRQAPGKGLEWVANIKQDGSEKDYVDSVKGRFTISRDNAKNSLYLQMNSLRVEDTAVYYCAREGGSSGWTFDYWGQGTLVTVSS VL: DIVMTQSPLSLPVTPGEPASISCRSSQSLLHSSGHNFLDWYLQKPGQSPQLLIYLGSNRASGVPDRFSGSGSGTDFTLKISRVEAEDVGVYYCMQALQTPPTFGQGTKLEIK ... 35
41A9 (antibody, human IgG1, V domains shown, also called 41A09; human antibody 41A9) VH: QVQLQQWGAGLLKPSETLSLTCAVYGGSFSDYYWSWIRQPPGKGLEWIGEINHSGSTNYNPSLKSRVTISVDTSKNQFSLKLSSVTAADTAVYYCARDYDVLTGHFYYYYGMDVWGQGTTVTVSS VL: EIVLTQSPATLSLSPGERATLSCRASQSVRRYLAWYQQKPGQAPRLLIYDASNRATGIPARFSGSGSGTDFTLTISSLEPEDFAVYYCQQRNNWPLTFGGGTKLEIK ... 6
04G06 (antibody, V domains shown, also called 4G6) VH: QVQLVESGGGVVQPGRSLRLSCVVSGFTLSSYGMHWVRQAPGKGLEWVAVIWYDGSDKYYADSVKGRFTISRDNSKNTLYLQMNSLRAEDTAVYYCARDDWGFDYWGQGTLVTVSS VL: DIQLTQSPSFLSASVGDRVTITCRASQDISNYLAWYQQKPGKAPKLLISASTLQSGVPSRFSGSGSGTEFILTISSLQPEDFATYYCQHLNSYPFGQGTKVEIK ... 4
12C2 (antibody, V domains shown) VH: QEQLVESGGGVVQPGRSLRLSCVTSGFTFSSYGMHWVRQAPGKGLEWVAVIWYDGTNKYYADTVKGRFTISRDNSKNTLYLQMNSLRAEDTGVYYCAREGCDTISCPYYYYGMDVWGQGTTITVSS VL: DILMTQSPSSLSASVGDRVTITCRASQGINYYLAWYQQKPGKVPKLLIYTASTLQSGVPSRFSGSGSGTDFTLTISSLQPEDVATYFCQKYNSAPFTFGPGTKLEIK ... 1
01E2 (antibody, V domains shown) VH: QVQLVESGGGVVQPGRSLRLSCAASGFTFSSYGMHWVRQAPGKGLEWVAVIWYAGSNKYYADSVKGRFTISRDNSKNTLYLQMNSLRAEDTAVYYCAGWDFDYWGQGTLVTVSS VL: EIVLTQSPATLSLSPGERATLSCRASQTVPNYLAWYQQKPGQAPRLLIYDASNRATDIPARFSGSGSGTDFTLTISSLEPEDFAVYYCQQRANWPPITFGQGTRLEIK ... 20

Alright, here's another binder for you.
Query: GET /values?readout=Kd&item= 42C5 (antibody, V domains shown) VH: EVQLVESGGGLVQPGGSLRLSCAASGFTFSRYWMNWVRQAPGKGLEWVANIKQDGSEKDYVDSVKGRFTISRDNAKNSLFLQMSSLRAEDTAVYYCARVMYSSGWSFDYWGQGTLVTVSS VL: DIVMTQSPLSLPVTPGEPASISCRSSRSLLHSSGYNFLDWFLQKPGQSPQLLIFLGSDRASGVPDRFSGSGSGTDFTLKISRVETEDVGVYYCMQALQTPITFGQGTRLEIK
Reply: 2
